B1: SNAP91 (parent)
chain: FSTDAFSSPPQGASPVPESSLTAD

- Variants of: B1
- Assay details: protein stability index of a GFP-peptide fusion (GPS, HEK-293T) (PSI 1-6); higher = more stable;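 further: lentivirally expressed fusions sorted by FACS into six bins by GFP to DsRed ratio, PSI derived from sequencing read proportions per bin multiplied by bin number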
- Experimental conditions: c terminus: a fixed tail appended
# protein stability index >= 3 gives True, anything below gives False

E18L: False

Is the recorded value of protein stability index equal to or greater than 3 for this variant? E18M
False

Is the recorded value of protein stability index equal to or greater than 3 for this variant? E18S
True

Is the recorded value of protein stability index equal to or greater than 3 for this variant? A5R
True

Reference source: the supplement of paper PMC10567573
